The measurements presented in this section are drawn from patent US20130273029A1.

Catalogue of binders with associated MCF7 proliferation % inhibition
molecular target: Human HER3, endogenous, on human cancer cell lines (SK-Br-3, MCF7, BT-474) (human, UniProt P21860 20-1342); assay: cell-based or functional assay
Sequence (P21860 20-1342): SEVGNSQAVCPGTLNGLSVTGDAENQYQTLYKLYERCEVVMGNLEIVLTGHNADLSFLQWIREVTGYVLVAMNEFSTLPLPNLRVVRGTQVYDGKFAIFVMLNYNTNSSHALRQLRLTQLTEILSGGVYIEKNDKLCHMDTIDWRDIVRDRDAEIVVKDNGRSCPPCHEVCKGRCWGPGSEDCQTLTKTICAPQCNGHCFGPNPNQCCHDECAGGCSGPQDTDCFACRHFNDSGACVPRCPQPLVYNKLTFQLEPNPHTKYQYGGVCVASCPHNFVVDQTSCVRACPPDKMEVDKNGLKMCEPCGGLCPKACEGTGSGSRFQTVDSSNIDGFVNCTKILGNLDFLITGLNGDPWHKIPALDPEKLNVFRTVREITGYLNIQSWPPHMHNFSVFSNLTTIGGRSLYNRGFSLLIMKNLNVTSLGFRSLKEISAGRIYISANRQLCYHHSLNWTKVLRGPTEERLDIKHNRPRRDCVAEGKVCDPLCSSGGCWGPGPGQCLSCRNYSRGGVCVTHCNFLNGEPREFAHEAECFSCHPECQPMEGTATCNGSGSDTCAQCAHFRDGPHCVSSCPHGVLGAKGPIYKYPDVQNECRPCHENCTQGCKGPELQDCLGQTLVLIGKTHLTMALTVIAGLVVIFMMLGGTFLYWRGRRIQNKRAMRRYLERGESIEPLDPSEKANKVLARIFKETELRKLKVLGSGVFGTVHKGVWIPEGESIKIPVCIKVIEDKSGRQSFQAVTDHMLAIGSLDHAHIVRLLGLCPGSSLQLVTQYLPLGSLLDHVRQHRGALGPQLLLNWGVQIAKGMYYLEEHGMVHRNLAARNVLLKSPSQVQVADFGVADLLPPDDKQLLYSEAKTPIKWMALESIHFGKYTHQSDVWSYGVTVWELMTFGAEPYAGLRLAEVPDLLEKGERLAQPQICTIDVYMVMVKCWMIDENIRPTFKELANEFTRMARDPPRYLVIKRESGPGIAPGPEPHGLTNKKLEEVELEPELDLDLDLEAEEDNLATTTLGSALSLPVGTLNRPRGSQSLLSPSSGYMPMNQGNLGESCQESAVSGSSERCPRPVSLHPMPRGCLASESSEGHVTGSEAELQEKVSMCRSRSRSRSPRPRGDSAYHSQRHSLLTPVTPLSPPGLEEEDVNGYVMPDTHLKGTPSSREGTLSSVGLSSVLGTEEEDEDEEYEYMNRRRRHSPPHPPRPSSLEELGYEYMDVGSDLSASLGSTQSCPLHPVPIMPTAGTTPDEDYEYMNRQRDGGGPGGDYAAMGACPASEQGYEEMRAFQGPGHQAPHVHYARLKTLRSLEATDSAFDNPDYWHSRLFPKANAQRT
Kindly provide the numeric value in % only, without the unit symbol.

# count of solved cases: 2
MOR13870 (antibody, human IgG1, kappa, V domains shown, tested as IgG) VH: QVQLVQSGAEVKKPGESLKISCKGSGYSFSNYWIAWVRQMPGKGLEWMGIIYPGTSDTIYSPSFQGQVTISADKSISTAYLQWSSLKASDTAMYYCARVHIIQPPSAWSYNAMDVWGQGTLVTVSS VL: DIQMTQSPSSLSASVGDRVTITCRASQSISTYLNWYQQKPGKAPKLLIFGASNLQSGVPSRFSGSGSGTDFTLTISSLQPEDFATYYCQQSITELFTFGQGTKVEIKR | 48
MOR13766 (antibody, human IgG1, kappa, V domains shown, tested as IgG) VH: QVQLVQSGAEVKKPGESLKISCKGSGYSFTTTWVAWVRQMPGKGLEWMGIIYPGSSDTIYSPSFQGQVTISADKSISTAYLQWSSLKASDTAMYYCARVHIIQPPSAWSYNAMDVWGQGTLVTVSS VL: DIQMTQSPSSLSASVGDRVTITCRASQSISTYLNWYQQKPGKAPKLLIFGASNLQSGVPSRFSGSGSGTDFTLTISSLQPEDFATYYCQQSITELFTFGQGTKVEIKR | 53

Reported MCF7 proliferation % inhibition of MOR13868 (antibody, human IgG1, kappa, V domains shown, tested as IgG) VH: QVQLVQSGAEVKKPGESLKISCKGSGYSFSNYWIAWVRQMPGKGLEWMGIIYPGLSDTIYSPSFQGQVTISADKSISTAYLQWSSLKASDTAMYYCARVHIIQPPSAWSYNAMDVWGQGTLVTVSS VL: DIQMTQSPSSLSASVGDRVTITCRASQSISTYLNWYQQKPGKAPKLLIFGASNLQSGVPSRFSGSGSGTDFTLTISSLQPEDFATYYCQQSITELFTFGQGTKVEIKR : 58
